Tested on: 317291-083-R-J1-PDC complex spheroids, viability
method notes: Anticancer human tumor 317291-083-R-J1-PDC patient-derived soft tissue sarcoma cell line growth inhibition [GQUAD]
assay conditions: curve of first compound; second compound 0.0316 µM
Description: DNA G-quadruplex Stabilizer Agents in Combinations in Complex Spheroids A high-throughput screen of multi-cell type tumor spheroids was designed to identify active combinations of DNA G-quadruplex stabilizer agents and targeted small molecules. […] Compounds. […] If the clinical Cmax for an agent had not been determined, the highest concentration tested was 10 microM. […]
assay metric: log10(IC50) (log10 of the value in nM)

compound | log10(IC50)
CC(C)(O)C1CCC(Nc2ccc3ncc(-c4cccc(C(F)(F)F)c4)n3n2)CC1 (stereo unspecified) + Cc1[nH]c2ccc(F)cc2c1-c1nc2c3cccnc3c3ncccc3c2[nH]1 | 2.81
CC1COCCN1c1cc(C2(S(C)(=N)=O)CC2)nc(-c2ccnc3[nH]ccc23)n1 (stereo unspecified) + CN(C)c1ccc(Nc2c3ccc(NC(=O)CCN4CCCC4)cc3nc3cc(NC(=O)CCN4CCCC4)ccc23)cc1 | 2.98
CC[C@@]1(O)C(=O)OCc2c1cc1n(c2=O)Cc2cc3c(CN(C)C)c(O)ccc3nc2-1 + Cc1cnc(CNC(=O)c2c(=O)c3ccc(N4CCCN(C)CC4)nc3n3c2sc2ccccc23)cn1 | 1.55
CC1COCCN1c1cc(C2(O)CC3CCC(C2)O3)c2cnn(-c3ccn[nH]3)c2n1 (stereo unspecified) + CN(C)c1ccc(Nc2c3ccc(NC(=O)CCN4CCCC4)cc3nc3cc(NC(=O)CCN4CCCC4)ccc23)cc1 | 1.57
COc1cc(C2c3cc4c(cc3C(OC3OC5COC(C)OC5C(O)C3O)C3COC(=O)C23)OCO4)cc(OC)c1O (stereo unspecified) + Cc1[nH]c2ccc(F)cc2c1-c1nc2c3cccnc3c3ncccc3c2[nH]1 | 2.64
COc1cc(C2c3cc4c(cc3C(OC3OC5COC(C)OC5C(O)C3O)C3COC(=O)C23)OCO4)cc(OC)c1O (stereo unspecified) + Cc1cnc(CNC(=O)c2c(=O)c3ccc(N4CCCN(C)CC4)nc3n3c2sc2ccccc23)cn1 | 2.37
Nc1ccn(C2OC(CO)C(O)C2(F)F)c(=O)n1 (stereo unspecified) + Cc1cnc(CNC(=O)c2c(=O)c3ccc(N4CCCN(C)CC4)nc3n3c2sc2ccccc23)cn1 | 1.54
Nc1ccn(C2OC(CO)C(O)C2(F)F)c(=O)n1 (stereo unspecified) + CN(C)c1ccc(Nc2c3ccc(NC(=O)CCN4CCCC4)cc3nc3cc(NC(=O)CCN4CCCC4)ccc23)cc1 | 1.65

* * *

System: 317291-083-R-J1-PDC complex spheroids, viability
method notes: Anticancer human tumor 317291-083-R-J1-PDC cell line growth inhibition [GQUAD];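 also: spheroids exposed to compounds for one week before readout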;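 as to viability, T/C: percent viability relative to DMSO vehicle wells taken as 100%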
assay conditions: second compound 3.16 µM; first compound 0.1 µM; stronger effect = lower value
assay metric: viability, T/C (%)

molecule | experimental result
COc1ccc([C@@H](O)c2cc(-c3ncnc4cc(N5CCOCC5)ccc34)c(F)cc2Cl)nn1 + CN(C)c1ccc(Nc2c3ccc(NC(=O)CCN4CCCC4)cc3nc3cc(NC(=O)CCN4CCCC4)ccc23)cc1 | 24.1
COc1cc(C2c3cc4c(cc3C(OC3OC5COC(C)OC5C(O)C3O)C3COC(=O)C23)OCO4)cc(OC)c1O (stereo not given) + CN(C)c1ccc(Nc2c3ccc(NC(=O)CCN4CCCC4)cc3nc3cc(NC(=O)CCN4CCCC4)ccc23)cc1 | 12.5
O=C(NO)c1cnc(N2CCN(S(=O)(=O)c3ccc4ccccc4c3)CC2)nc1 + Cc1cnc(CNC(=O)c2c(=O)c3ccc(N4CCCN(C)CC4)nc3n3c2sc2ccccc23)cn1 | 0.73
COc1ncnc(C2CC2)c1-c1ncc2cnn(Cc3ccc(-c4nc(C(F)(F)F)cn4C(C)C)cc3)c2n1 + Cc1[nH]c2ccc(F)cc2c1-c1nc2c3cccnc3c3ncccc3c2[nH]1 | 27.6
CC1COCCN1c1cc(-c2ccnn2C)c2ccnc(-c3ccn[nH]3)c2n1 (stereo not given) + Cc1[nH]c2ccc(F)cc2c1-c1nc2c3cccnc3c3ncccc3c2[nH]1 | 43.7
O=C(NO)c1cnc(N2CCN(S(=O)(=O)c3ccc4ccccc4c3)CC2)nc1 + CN(C)c1ccc(Nc2c3ccc(NC(=O)CCN4CCCC4)cc3nc3cc(NC(=O)CCN4CCCC4)ccc23)cc1 | 1.33
COc1cccc2c1C(=O)c1c(O)c3c(c(O)c1C2=O)CC(O)(C(=O)CO)CC3OC1CC(N)C(O)C(C)O1 (stereo not given) + Cc1[nH]c2ccc(F)cc2c1-c1nc2c3cccnc3c3ncccc3c2[nH]1 | 31.2
CC(=O)O[C@H]1C(=O)[C@@]2(C)[C@H]([C@H](OC(=O)c3ccccc3)[C@]3(O)C[C@H](OC(=O)[C@H](O)[C@@H](NC(=O)c4ccccc4)c4ccccc4)C(C)=C1C3(C)C)[C@]1(OC(C)=O)CO[C@@H]1C[C@@H]2O + CN(C)c1ccc(Nc2c3ccc(NC(=O)CCN4CCCC4)cc3nc3cc(NC(=O)CCN4CCCC4)ccc23)cc1 | 0.56
COc1ccc([C@@H](O)c2cc(-c3ncnc4cc(N5CCOCC5)ccc34)c(F)cc2Cl)nn1 + Cc1cnc(CNC(=O)c2c(=O)c3ccc(N4CCCN(C)CC4)nc3n3c2sc2ccccc23)cn1 | 41.4
O=c1[nH]cc(F)c(=O)[nH]1 + Cc1cnc(CNC(=O)c2c(=O)c3ccc(N4CCCN(C)CC4)nc3n3c2sc2ccccc23)cn1 | 29.8

* * *

Test system: 317291-083-R-J1-PDC complex spheroids, viability
method notes: Anticancer human tumor 317291-083-R-J1-PDC cell line growth inhibition [GQUAD];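 also: spheroids exposed to compounds for one week before readout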;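 as to viability, T/C: percent viability relative to DMSO vehicle wells taken as 100%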
assay conditions: second compound 0.1 µM; first compound 0.316 µM; stronger effect = lower value
assay metric: viability, T/C (%)

molecule | unit info | experimental result
CC(=O)O[C@H]1C(=O)[C@@]2(C)[C@H]([C@H](OC(=O)c3ccccc3)[C@]3(O)C[C@H](OC(=O)[C@H](O)[C@@H](NC(=O)c4ccccc4)c4ccccc4)C(C)=C1C3(C)C)[C@]1(OC(C)=O)CO[C@@H]1C[C@@H]2O + Cc1cnc(CNC(=O)c2c(=O)c3ccc(N4CCCN(C)CC4)nc3n3c2sc2ccccc23)cn1 | % | 11.1
O=C(c1cc(Cc2n[nH]c(=O)c3ccccc23)ccc1F)N1CCN(C(=O)C2CC2)CC1 + Cc1cnc(CNC(=O)c2c(=O)c3ccc(N4CCCN(C)CC4)nc3n3c2sc2ccccc23)cn1 | % | 64.5
C=CC(=O)N1CCN(c2nc(=O)n(-c3c(C)ccnc3C(C)C)c3nc(-c4c(O)cccc4F)c(F)cc23)C(C)C1 (centres undefined) + CN(C)c1ccc(Nc2c3ccc(NC(=O)CCN4CCCC4)cc3nc3cc(NC(=O)CCN4CCCC4)ccc23)cc1 | % | 99.1
O=C(NO)c1cnc(N2CCN(S(=O)(=O)c3ccc4ccccc4c3)CC2)nc1 + Cc1cnc(CNC(=O)c2c(=O)c3ccc(N4CCCN(C)CC4)nc3n3c2sc2ccccc23)cn1 | % | 6.03
CC(=O)O[C@H]1C(=O)[C@@]2(C)[C@H]([C@H](OC(=O)c3ccccc3)[C@]3(O)C[C@H](OC(=O)[C@H](O)[C@@H](NC(=O)c4ccccc4)c4ccccc4)C(C)=C1C3(C)C)[C@]1(OC(C)=O)CO[C@@H]1C[C@@H]2O + Cc1[nH]c2ccc(F)cc2c1-c1nc2c3cccnc3c3ncccc3c2[nH]1 | % | 12.2
Cc1[nH]c2ccccc2c1CCNCc1ccc(/C=C/C(=O)NO)cc1 + Cc1[nH]c2ccc(F)cc2c1-c1nc2c3cccnc3c3ncccc3c2[nH]1 | % | 0.12
C=CC(=O)N1CCN(c2nc(=O)n(-c3c(C)ccnc3C(C)C)c3nc(-c4c(O)cccc4F)c(F)cc23)C(C)C1 (centres undefined) + Cc1[nH]c2ccc(F)cc2c1-c1nc2c3cccnc3c3ncccc3c2[nH]1 | % | 104
COc1ncnc(C2CC2)c1-c1ncc2cnn(Cc3ccc(-c4nc(C(F)(F)F)cn4C(C)C)cc3)c2n1 + CN(C)c1ccc(Nc2c3ccc(NC(=O)CCN4CCCC4)cc3nc3cc(NC(=O)CCN4CCCC4)ccc23)cc1 | % | 65.9
Nc1ccn(C2OC(CO)C(O)C2(F)F)c(=O)n1 (centres undefined) + Cc1cnc(CNC(=O)c2c(=O)c3ccc(N4CCCN(C)CC4)nc3n3c2sc2ccccc23)cn1 | % | 11.6

* * *

Tested on: 317291-083-R-J1-PDC complex spheroids, viability
method notes: Anticancer human tumor 317291-083-R-J1-PDC cell line growth inhibition [GQUAD]; active = viability on the fitted dose curve at most 10% of control; inactive = the rest;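 also: spheroids exposed to compounds for one week before readout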
assay conditions: second compound 0.0316 µM; first compound 10 µM
Outcome codes: Y = active, N = inactive

compound | category
COc1cccc2c1C(=O)c1c(O)c3c(c(O)c1C2=O)CC(O)(C(=O)CO)CC3OC1CC(N)C(O)C(C)O1 (stereo not given) + CN(C)c1ccc(Nc2c3ccc(NC(=O)CCN4CCCC4)cc3nc3cc(NC(=O)CCN4CCCC4)ccc23)cc1 | Y
CC(C)(O)C1CCC(Nc2ccc3ncc(-c4cccc(C(F)(F)F)c4)n3n2)CC1 (stereo not given) + CN(C)c1ccc(Nc2c3ccc(NC(=O)CCN4CCCC4)cc3nc3cc(NC(=O)CCN4CCCC4)ccc23)cc1 | Y
Nc1ccn(C2OC(CO)C(O)C2(F)F)c(=O)n1 (stereo not given) + CN(C)c1ccc(Nc2c3ccc(NC(=O)CCN4CCCC4)cc3nc3cc(NC(=O)CCN4CCCC4)ccc23)cc1 | N
COc1cc(C2c3cc4c(cc3C(OC3OC5COC(C)OC5C(O)C3O)C3COC(=O)C23)OCO4)cc(OC)c1O (stereo not given) + CN(C)c1ccc(Nc2c3ccc(NC(=O)CCN4CCCC4)cc3nc3cc(NC(=O)CCN4CCCC4)ccc23)cc1 | N
COc1ncnc(C2CC2)c1-c1ncc2cnn(Cc3ccc(-c4nc(C(F)(F)F)cn4C(C)C)cc3)c2n1 + Cc1[nH]c2ccc(F)cc2c1-c1nc2c3cccnc3c3ncccc3c2[nH]1 | N
